Parameter EC50: see the listing below.
- assay.target: RNA-binding protein pos-1 (Caenorhabditis elegans)
- Sequence (G5EF15 whole entry, the tested form may be a part): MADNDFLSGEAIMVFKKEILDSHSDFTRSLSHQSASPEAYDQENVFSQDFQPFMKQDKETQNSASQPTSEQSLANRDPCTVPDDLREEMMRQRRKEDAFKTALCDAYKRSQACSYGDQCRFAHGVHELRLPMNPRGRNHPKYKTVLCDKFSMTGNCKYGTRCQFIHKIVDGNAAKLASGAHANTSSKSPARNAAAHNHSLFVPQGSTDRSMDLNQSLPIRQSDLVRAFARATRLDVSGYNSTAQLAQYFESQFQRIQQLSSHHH
- test.protocol: disruptors of C. elegans POS-1 RNA interaction – biochemical, fluorescence polarization, dose response (AID 1964);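 further: purified POS-1 fused to maltose binding protein made in E. coli; potency of compounds blocking POS-1 binding to fluorescent RNA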
Where a name gives a salt, the structure may show the parent alone. The source made the active and inactive calls.
value.kind: EC50

INSERT INTO results (compound, measured) VALUES
  ('CCOc1ccc(N2C(=O)NC(=O)/C(=C\Nc3ccc(N4CCOCC4)cc3)C2=O)cc1', '17.6 µM (inconclusive)'),
  ('COc1ccccc1/C=C1/SC(=S)N(CCC(=O)Nc2cccnc2)C1=O', '69.2 µM (active)'),
  ('CN(C)c1ccc(/C=C(\C#N)C(=O)NCc2ccco2)cc1', '> 300 µM (not active)'),
  ('N#CC1=C(N)C2=C(N3CCCCC3)CCCC2C1(C#N)C#N (stereo not given)', '89.4 µM (active)'),
  ('Cc1ccc(NC(=O)CCS(=O)(=O)c2cc3c(cc2Cl)NC(=O)CO3)cc1', '> 300 µM (not active)'),
  ('COc1ccc(C2c3ccc(O)cc3Oc3ncn(Cc4ccco4)c(=N)c32)cc1OC (stereo not given)', '> 300 µM (not active)'),
  ('NC(CO)C(=O)NNCc1ccc(O)c(O)c1O (stereo not given) [BENSERAZIDE HYDROCHLORIDE]', '37.5 µM (active)'),
  ('Cc1cccc(CN2C(=O)N/C(=C/c3ccc(C)s3)C2=O)c1', '27.5 µM (active)'),
  ('COc1cccc(C2C(C(=O)c3cc4cccc(OC)c4o3)=C(O)C(=O)N2c2cc(C)on2)c1OC (stereo not given)', '> 300 µM (not active)'),
  ('CCOc1cc(N2CCOCC2)c(OCC)cc1NC(C)C(=O)N1CCN(CC)CC1 (stereo not given)', '82.7 µM (active)');

----------
- assay.target: UniProtKB Q9GZV3
- Sequence (Q9GZV3 whole entry): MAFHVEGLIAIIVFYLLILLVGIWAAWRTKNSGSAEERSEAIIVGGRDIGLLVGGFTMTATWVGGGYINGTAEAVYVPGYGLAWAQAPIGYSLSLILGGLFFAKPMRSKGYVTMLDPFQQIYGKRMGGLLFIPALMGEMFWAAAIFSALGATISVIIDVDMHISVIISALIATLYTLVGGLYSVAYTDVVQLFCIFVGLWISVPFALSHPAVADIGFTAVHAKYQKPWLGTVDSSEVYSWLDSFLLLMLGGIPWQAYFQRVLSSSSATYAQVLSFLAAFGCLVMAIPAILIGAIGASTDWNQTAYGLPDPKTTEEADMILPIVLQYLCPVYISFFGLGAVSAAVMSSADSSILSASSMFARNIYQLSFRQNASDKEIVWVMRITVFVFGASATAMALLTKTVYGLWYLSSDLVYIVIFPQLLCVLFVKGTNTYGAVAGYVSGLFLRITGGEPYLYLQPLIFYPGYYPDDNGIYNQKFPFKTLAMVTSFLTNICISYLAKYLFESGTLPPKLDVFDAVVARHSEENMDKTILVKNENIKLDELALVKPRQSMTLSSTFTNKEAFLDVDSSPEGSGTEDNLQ
- test.protocol: human choline transporter blockers, potency – cell-based, 5-point CRC, membrane potential dye, dose response (AID 504840)
- Type: functional
Calls of active or inactive are those of the source.
IC50 listing for selected compounds.
value.kind: IC50

INSERT INTO measurements (compound, assay_target, value_kind, measured) VALUES
  ('CCN(Cc1ccccc1)S(=O)(=O)c1cc(C(=O)NC2CCCCCC2)ccc1OC', 'UniProtKB Q9GZV3', 'IC50', '0.575 µM (active)'),
  ('CCCCN(CCCC)CCNC(=O)c1cn(CC)c2ccc(S(=O)(=O)N(C)C3CCCCC3)cc2c1=O', 'UniProtKB Q9GZV3', 'IC50', '15.8 µM (active)'),
  ('CC(C)(C)c1ccc(C(=O)CC(Sc2ccc(Cl)cc2)C(=O)O)cc1 (centres undefined)', 'UniProtKB Q9GZV3', 'IC50', '12.6 µM (active)'),
  ('C=C[C@@]1(C)CC(=O)[C@]2(O)[C@@]3(C)[C@@H](O)CCC(C)(C)[C@@H]3[C@H](OC(C)=O)[C@H](O)[C@@]2(C)O1', 'UniProtKB Q9GZV3', 'IC50', '1.52 µM (active)');

----------
- assay.target: UniProt Q9QUQ5
- Sequence (Q9QUQ5 whole entry): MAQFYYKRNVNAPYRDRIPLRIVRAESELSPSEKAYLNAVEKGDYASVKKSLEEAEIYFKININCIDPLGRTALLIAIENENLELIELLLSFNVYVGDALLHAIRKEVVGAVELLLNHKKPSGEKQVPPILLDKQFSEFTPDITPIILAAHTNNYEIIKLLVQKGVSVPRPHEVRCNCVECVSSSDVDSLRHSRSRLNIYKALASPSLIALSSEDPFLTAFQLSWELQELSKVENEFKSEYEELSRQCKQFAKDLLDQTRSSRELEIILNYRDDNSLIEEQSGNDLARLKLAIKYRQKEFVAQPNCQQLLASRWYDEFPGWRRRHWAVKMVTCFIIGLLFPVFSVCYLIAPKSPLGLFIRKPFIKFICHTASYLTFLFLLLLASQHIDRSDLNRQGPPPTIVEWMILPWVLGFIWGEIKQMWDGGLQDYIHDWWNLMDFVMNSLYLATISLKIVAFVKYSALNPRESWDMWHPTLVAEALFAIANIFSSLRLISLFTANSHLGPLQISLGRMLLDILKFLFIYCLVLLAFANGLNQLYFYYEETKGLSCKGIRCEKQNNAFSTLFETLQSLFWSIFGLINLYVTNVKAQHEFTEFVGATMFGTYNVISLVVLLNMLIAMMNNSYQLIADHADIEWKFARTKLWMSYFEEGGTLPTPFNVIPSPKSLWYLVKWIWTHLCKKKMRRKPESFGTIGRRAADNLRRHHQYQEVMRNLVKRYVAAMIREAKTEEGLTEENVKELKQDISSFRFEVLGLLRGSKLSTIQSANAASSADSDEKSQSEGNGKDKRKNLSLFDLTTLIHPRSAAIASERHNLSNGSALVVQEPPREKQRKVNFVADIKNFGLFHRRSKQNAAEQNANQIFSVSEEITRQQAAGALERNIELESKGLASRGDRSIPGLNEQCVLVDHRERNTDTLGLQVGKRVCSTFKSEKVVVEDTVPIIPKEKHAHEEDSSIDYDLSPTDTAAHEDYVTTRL
- test.protocol: calcium entry via TRPC4 opening agents – cell-based, HEK293 TRPC4/mu-opioid, Fluo-4 calcium, dose response (AID 434937)
- Format: functional
Active and inactive are the calls of the source.
Recorded EC50, one value per entry.
value.kind: EC50

INSERT INTO measurements (entry_smiles, value_kind, measured) VALUES
  ('O=C(NCCc1cccc(Cl)c1)c1ccc(OC2CCN(Cc3ccccn3)CC2)cc1', 'EC50', '944 nM (active)'),
  ('Nc1c(C(=O)c2ccccc2)sc2nsc(SCCN3CCCC3)c12', 'EC50', '5960 nM (active)'),
  ('Cc1ccc(NC(S)=NCCc2c[nH]cn2)cc1C', 'EC50', '267 nM (active)'),
  ('Cc1ccc(C)c(NC(S)=NCCc2c[nH]cn2)c1', 'EC50', '2660 nM (active)'),
  ('O=C(c1cccs1)N1CCN(c2ncc(Br)cn2)CC1', 'EC50', '668 nM (active)'),
  ('CCCc1ccc(OCC(=O)NNC(=S)NC(=O)c2ccco2)cc1', 'EC50', '6680 nM (active)');

----------
Below: a set of entries, each annotated with reported EC50.
- assay.target: UniProt:Q9XUB2
- Sequence (Q9XUB2 whole entry): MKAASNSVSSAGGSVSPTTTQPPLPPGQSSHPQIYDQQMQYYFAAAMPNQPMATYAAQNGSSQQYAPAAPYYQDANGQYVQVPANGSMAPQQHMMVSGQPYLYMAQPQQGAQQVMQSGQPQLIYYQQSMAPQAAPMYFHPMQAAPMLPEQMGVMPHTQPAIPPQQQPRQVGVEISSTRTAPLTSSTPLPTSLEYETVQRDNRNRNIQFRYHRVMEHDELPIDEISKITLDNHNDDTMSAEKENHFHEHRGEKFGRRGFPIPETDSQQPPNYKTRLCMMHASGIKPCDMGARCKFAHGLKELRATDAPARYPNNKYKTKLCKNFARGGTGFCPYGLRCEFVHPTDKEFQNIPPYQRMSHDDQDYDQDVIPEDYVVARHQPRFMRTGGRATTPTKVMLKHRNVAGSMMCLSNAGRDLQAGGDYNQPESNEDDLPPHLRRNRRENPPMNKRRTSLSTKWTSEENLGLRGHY
- test.protocol: potency of MEX-5 RNA-binding blockers – biochemical, C. elegans, fluorescence polarization, dose response (AID 1960)
Where a name gives a salt, the structure may show the parent alone. Calls of active or inactive are those of the source.
value.kind: EC50

INSERT INTO measurements (molecule, measured) VALUES
  ('CCC(C)n1c(=N)c(C#N)cc2c(=O)n3cccc(C)c3nc21 (centres undefined)', '21.5 µM (inconclusive)'),
  ('COc1cccc(C(=O)NNc2nc(C)cc(C)n2)c1', '127 µM (active)'),
  ('COc1ccc(C2c3ccc(O)cc3Oc3ncn(Cc4ccco4)c(=N)c32)cc1OC (centres undefined)', '> 300 µM (not active)'),
  ('CN(C)c1ccc(/C=C(\C#N)C(=O)NCc2ccco2)cc1', '23.7 µM (active)'),
  ('Clc1cc(-c2ccc(/C=N/n3cnnc3)o2)ccc1Br', '81.6 µM (active)'),
  ('N#CC1=C(N)C2=C(N3CCCCC3)CCCC2C1(C#N)C#N (centres undefined)', '77.1 µM (active)'),
  ('CC1=CC(C)(C)N2C(=O)C3(C(C#N)=C(N)OC4=C3C(=O)CCC4)c3c(C)c(C)cc1c32 (centres undefined)', '> 300 µM (not active)'),
  ('COc1ccccc1/C=C1/SC(=S)N(CCC(=O)Nc2cccnc2)C1=O', '37.6 µM (inconclusive)'),
  ('Cc1ccc(NC(=O)CCS(=O)(=O)c2cc3c(cc2Cl)NC(=O)CO3)cc1', '> 300 µM (not active)'),
  ('Cc1ccc(/C(O)=C/c2nc3cc(C)ccc3oc2=O)cc1', '1.64 µM (inconclusive)'),
  ('NC(CO)C(=O)NNCc1ccc(O)c(O)c1O (centres undefined) [BENSERAZIDE HYDROCHLORIDE]', '0.112 µM (active)'),
  ('COc1cccc(C2C(C(=O)c3cc4cccc(OC)c4o3)=C(O)C(=O)N2c2cc(C)on2)c1OC (centres undefined)', '> 300 µM (not active)'),
  ('CC(C)OCCCn1/c(=N/C(=O)c2cccs2)c(C#N)cc2c(=O)n3ccccc3nc21', '> 300 µM (not active)'),
  ('CCOc1cc(N2CCOCC2)c(OCC)cc1NC(C)C(=O)N1CCN(CC)CC1 (centres undefined)', '> 300 µM (inconclusive)'),
  ('Cc1cccc(CN2C(=O)N/C(=C/c3ccc(C)s3)C2=O)c1', '> 300 µM (inconclusive)'),
  ('CCOC(=O)c1cc(CC)sc1NC=C1C(=O)NC(=S)NC1=O', '15 µM (active)'),
  ('CCOc1ccc(N2C(=O)NC(=O)/C(=C\Nc3ccc(N4CCOCC4)cc3)C2=O)cc1', '60.4 µM (inconclusive)'),
  ('CCCC(C)NC(=O)c1ccc(C2SCC(=O)N2Cc2ccco2)cc1 (centres undefined)', '> 300 µM (not active)'),
  ('COc1cccc(F)c1C(=O)NC(=O)Nc1ccc2nc(C)oc2c1', '17.4 µM (active)');

----------
Cytochrome P450 1A2 (Homo sapiens, UniProt P05177) data, read-out AC50;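 further: PubChem cytochrome P450 panel assay, CYP1A2 panel member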
Sequence (P05177 whole entry): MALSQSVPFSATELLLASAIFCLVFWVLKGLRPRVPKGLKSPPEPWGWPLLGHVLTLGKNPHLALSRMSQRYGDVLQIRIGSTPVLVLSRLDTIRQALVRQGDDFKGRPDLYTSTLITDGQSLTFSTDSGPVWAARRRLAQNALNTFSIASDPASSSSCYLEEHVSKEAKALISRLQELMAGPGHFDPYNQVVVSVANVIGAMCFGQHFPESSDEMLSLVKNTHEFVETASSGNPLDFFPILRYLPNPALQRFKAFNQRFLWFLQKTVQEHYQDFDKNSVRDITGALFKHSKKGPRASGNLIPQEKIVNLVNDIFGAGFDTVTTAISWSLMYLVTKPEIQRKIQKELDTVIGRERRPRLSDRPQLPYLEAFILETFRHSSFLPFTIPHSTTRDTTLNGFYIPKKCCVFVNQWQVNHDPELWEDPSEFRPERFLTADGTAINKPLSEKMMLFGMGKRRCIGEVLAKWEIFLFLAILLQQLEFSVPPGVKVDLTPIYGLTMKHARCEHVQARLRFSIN
value.kind: AC50

INSERT INTO assay_data (compound, measured) VALUES
  ('CCOc1ccc(-n2ccnc2SCC(=O)Nc2nnc(C)s2)cc1', '25.1 µM (inconclusive)'),
  ('CS(=O)(=O)N1CCCC(C(=O)N2CCc3ccccc3C2)C1 (stereo unspecified)', '25.1 µM (inconclusive)'),
  ('COCCn1c(=O)c(-c2cccc(C#N)c2)nc2cnc(OCc3ccccc3)nc21', '12.6 µM (inconclusive)'),
  ('CCOc1ccc(N2C(=O)CN=C2Nc2ccccc2F)cc1', '15.8 µM (inconclusive)'),
  ('CC(=O)N1CCN(C(=O)CC2OC(=O)c3ccccc32)CC1 (stereo unspecified)', '22.4 µM (inconclusive)'),
  ('Cc1cccc(-c2nc(CN3CCCC(C(=O)NC4CCCCC4)C3)c(C)o2)c1 (stereo unspecified)', '20 µM (inconclusive)');

----------
- Tested on: Streptococcus sp. 'group A'
- test.protocol: Streptococcus pyogenes SK(-)GAS viability under kanamycin – luminescence, BacTiterGlo, confirmation, counter-screen for streptokinase expression inhibitor project, dose response (AID 1900)
- Type: functional, organism-based
Activity calls are given as the source filed them.
value.kind: EC50

INSERT INTO assay_data (compound, measured) VALUES
  ('O=[N+]([O-])c1ccc(O)c(/C=N/Nc2nc3ccccc3[nH]2)c1', '0.716 µM (active)'),
  ('COc1ccc(S(=O)(=O)NCC2CCCN(Cc3ccc(OC)cc3F)C2)cc1 (stereo not given)', '114 µM (active)'),
  ('Cc1ccc(S(=O)(=O)CN=C(S)c2ccc3ccccc3c2)cc1', '3.01 µM (active)'),
  ('COc1ccc(C2=NOC(CN=C(N)S)C2)cc1 (stereo not given)', '3.77 µM (active)'),
  ('N#Cc1nc(-c2ccc(OCc3ccccc3Cl)cc2)oc1NCCCn1ccnc1', '4.38 µM (active)');
